Target System: parietal cell H^+ K^+ ATPase (Oryctolagus cuniculus)
Construct: determined in fundic mucosa from New Zealand white rabbits which were homogenized; from tissue; host or cells: fundic mucosa of New Zealand white rabbits, homogenized; membrane protein
Sequence (P27112 2-1035 limits assumed): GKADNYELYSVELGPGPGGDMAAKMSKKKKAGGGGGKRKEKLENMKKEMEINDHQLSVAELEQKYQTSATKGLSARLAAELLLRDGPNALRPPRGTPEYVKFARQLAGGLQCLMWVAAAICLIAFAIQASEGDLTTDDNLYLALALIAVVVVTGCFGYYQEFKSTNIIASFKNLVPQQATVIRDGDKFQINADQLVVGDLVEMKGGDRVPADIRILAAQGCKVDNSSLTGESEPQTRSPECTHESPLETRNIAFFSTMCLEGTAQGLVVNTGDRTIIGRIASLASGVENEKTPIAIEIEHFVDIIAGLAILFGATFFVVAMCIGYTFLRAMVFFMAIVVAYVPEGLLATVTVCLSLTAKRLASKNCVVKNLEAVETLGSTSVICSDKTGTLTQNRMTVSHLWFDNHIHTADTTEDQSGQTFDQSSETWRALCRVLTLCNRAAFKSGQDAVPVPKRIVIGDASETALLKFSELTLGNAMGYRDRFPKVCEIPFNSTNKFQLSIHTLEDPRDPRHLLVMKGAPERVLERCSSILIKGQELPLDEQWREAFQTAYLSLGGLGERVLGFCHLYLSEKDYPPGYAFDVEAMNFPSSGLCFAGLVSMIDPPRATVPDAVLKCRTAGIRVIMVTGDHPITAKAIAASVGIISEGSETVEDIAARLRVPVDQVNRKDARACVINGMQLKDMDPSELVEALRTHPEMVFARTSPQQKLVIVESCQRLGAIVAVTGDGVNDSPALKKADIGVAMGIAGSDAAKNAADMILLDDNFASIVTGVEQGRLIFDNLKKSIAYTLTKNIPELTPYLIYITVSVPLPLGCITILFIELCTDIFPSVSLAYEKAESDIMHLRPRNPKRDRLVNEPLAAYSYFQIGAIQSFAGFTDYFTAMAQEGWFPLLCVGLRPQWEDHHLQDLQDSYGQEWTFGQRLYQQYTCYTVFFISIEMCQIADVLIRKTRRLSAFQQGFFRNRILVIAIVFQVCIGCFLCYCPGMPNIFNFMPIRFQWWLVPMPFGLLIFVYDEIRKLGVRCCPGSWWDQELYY
Sequence (P18597 whole entry partner): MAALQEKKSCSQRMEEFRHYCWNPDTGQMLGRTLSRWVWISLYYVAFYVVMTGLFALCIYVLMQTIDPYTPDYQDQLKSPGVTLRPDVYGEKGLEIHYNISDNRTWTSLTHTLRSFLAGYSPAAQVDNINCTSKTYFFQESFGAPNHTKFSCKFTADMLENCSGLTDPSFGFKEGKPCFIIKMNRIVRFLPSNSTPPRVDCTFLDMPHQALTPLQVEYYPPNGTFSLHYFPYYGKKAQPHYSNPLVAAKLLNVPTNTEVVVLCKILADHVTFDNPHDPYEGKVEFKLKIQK
Assay Name: Inhibition of parietal cell H+ K+ ATPase
Format: biochemical, New Zealand white rabbits
Protocol Conditions: Example 49; @ 10^-4 M; read-out: % Inhibition at Concentration (H+ K+ ATPase)
Outcome label depends on inhibition at 100 µM relative to 50%: at/above gives 1 (yes), below gives 0 (no).

>>> group_label("CCCCN(CCCC)CCCOc1ccc(/C=C/c2nc3cc(Cl)ccc3s2)cc1 [Example 36]")
"1 (yes)"
>>> group_label("COc1ccccc1N1CCN(CCCOc2ccc(/C=C/c3nc4ccccc4o3)cc2)CC1 [Example 14]")
"0 (no)"
>>> group_label("CCCCN(CCCC)CCCOc1cccc(/C=C/c2nc3ccccc3s2)c1 [Example 25]")
"1 (yes)"
>>> group_label("CCCCN(CCCC)CCOc1ccc(/C=C/c2nc3ccccc3o2)cc1 [Example 17]")
"0 (no)"
>>> group_label("CCCN(CCC)CCCOc1ccc(-c2nc3ccccc3s2)cc1 [Example 44]")
"1 (yes)"

Does the reported inhibition at 100 µM for CCCCN(CCCC)CCCOc1ccc(/C=C/c2nc3ccccc3o2)cc1 [Example 8] fall at or above the 50% mark?
0 (no)

Has COc1ccccc1N1CCN(CCCOc2ccc(/C=C/c3nc4ccccc4s3)cc2)CC1 [Example 31] a recorded inhibition at 100 µM greater than or equal to 50%?
0 (no)
